# Measurement Description: Phase 1b study in NASH patients: pharmacokinetics
# Assay type: in vivo, human
# Assay Conditions: both sexes, human, plasma; 300 mg BID oral, NASH patients, mean (standard deviation)
Endpoint Label: half-life (h)
Numbers only, in h.

State the recorded half-life for this entry: C[C@H](CCCC(C)(C)O)[C@H]1CC[C@H]2[C@@H]3CC=C4C[C@@H](OS(=O)(=O)O)CC[C@]4(C)[C@H]3CC[C@]12C [25HC3S, 5-cholesten-3,25-diol, 3-sulfate]
2.4

###

# Measurement Description: Metabolite profiling of plasma and feces after oral dose
# Type: in vivo, rats
# Assay Conditions: Sprague Dawley, rat; 75 mg/kg oral, 2 hour postdose plasma
Endpoint Label: concentration at 2 h (ng/g)
Give bare numbers, in ng/g.

State the recorded concentration at 2 h for this entry: C[C@H](CCCC(C)(C)O)[C@H]1CC[C@H]2[C@@H]3CC=C4C[C@@H](O)CC[C@]4(C)[C@H]3CC[C@]12C [M29, 25-hydroxycholesterol]
1230

###

# Measurement Description: Single oral dose safety and pharmacokinetic study in NASH and healthy subjects
# Assay type: in vivo, human
# Assay Conditions: human, plasma, oral; across both healthy and NASH subject groups, 50 mg and 200 mg; read-out: T1/2, range of mean values
Endpoint Label: half-life

State the recorded half-life for this entry: C[C@H](CCCC(C)(C)O)[C@H]1CC[C@H]2[C@@H]3CC=C4C[C@@H](OS(=O)(=O)O)CC[C@]4(C)[C@H]3CC[C@]12C [25HC3S, 5-cholesten-3,25-diol, 3-sulfate]
1.67 to 2.51 h

###

# Measurement Description: Phase 1b study in NASH patients: pharmacokinetics
# Type: in vivo, human
# Assay Conditions: both sexes, human, plasma; 150 mg QD oral, NASH patients, mean (standard deviation)
Endpoint Label: Tmax (h)
Answers are plain numbers, in h.

State the recorded Tmax for this entry: C[C@H](CCCC(C)(C)O)[C@H]1CC[C@H]2[C@@H]3CC=C4C[C@@H](OS(=O)(=O)O)CC[C@]4(C)[C@H]3CC[C@]12C [25HC3S, 5-cholesten-3,25-diol, 3-sulfate]
2

###

# Measurement Description: Phase 1b study in NASH patients: pharmacokinetics
# Assay type: in vivo, human
# Assay Conditions: both sexes, human, plasma; 50 mg QD oral, NASH patients, mean (standard deviation)
Endpoint Label: Tmax (h)
Answers are plain numbers, in h.

State the recorded Tmax for this entry: C[C@H](CCCC(C)(C)O)[C@H]1CC[C@H]2[C@@H]3CC=C4C[C@@H](OS(=O)(=O)O)CC[C@]4(C)[C@H]3CC[C@]12C [25HC3S, 5-cholesten-3,25-diol, 3-sulfate]
2.4

###

# Measurement Description: Single oral dose safety and pharmacokinetic study in NASH and healthy subjects
# Type: in vivo, human
# Assay Conditions: human, plasma; 200 mg single oral dose, Healthy, Mean; read-out: Cmax
Endpoint Label: Cmax

State the recorded Cmax for this entry: C[C@H](CCCC(C)(C)O)[C@H]1CC[C@H]2[C@@H]3CC=C4C[C@@H](OS(=O)(=O)O)CC[C@]4(C)[C@H]3CC[C@]12C [25HC3S, 5-cholesten-3,25-diol, 3-sulfate]
260 ng/mL

###

# Measurement Description: Phase 1b study in NASH patients: pharmacokinetics
# Format: in vivo, human
# Assay Conditions: both sexes, human, plasma; 150 mg QD oral, NASH patients, mean (standard deviation)
Endpoint Label: half-life (h)
One number for each entry, in h.

State the recorded half-life for this entry: C[C@H](CCCC(C)(C)O)[C@H]1CC[C@H]2[C@@H]3CC=C4C[C@@H](OS(=O)(=O)O)CC[C@]4(C)[C@H]3CC[C@]12C [25HC3S, 5-cholesten-3,25-diol, 3-sulfate]
2.7
